- test method notes: Solubility measurements in various solvents (visual inspection of dissolution)
- Type: physicochemical
- condition info: N,N-dimethylformamide (DMF), organic solvent or mixture, thermodynamic from solid; N,N-dinnethylformamide (DMF)
metric name: solubility

>>> observed_result("NCCOCCOCCNc1ccc2c3c(cccc13)C(=O)N(CCOCCOCCN1C(=O)c3cccc4c(NCCOCCOCCN)ccc(c34)C1=O)C2=O")
"< 1000 µg/mL"

###

- test method notes: Solubility measurements in various solvents (visual inspection of dissolution)
- Type: physicochemical
- condition info: toluene, organic solvent or mixture, thermodynamic from solid
metric name: solubility

>>> observed_result("NCCOCCOCCNc1ccc2c3c(cccc13)C(=O)N(CCOCCOCCN1C(=O)c3cccc4c(NCCOCCOCCN)ccc(c34)C1=O)C2=O")
"< 1000 µg/mL"
